// data source = ChEMBL document CHEMBL3124916

protocol-summary: Inhibition of Neurospora crassa Histone H3-K9 methyltransferase dim-5
observation-type: pIC50
Numbers only, as −log10 of the molar value.

Ask: Field request: pIC50 | item: `CN1C(=O)[C@@]23C[C@]4([C@]56C[C@@]78SS[C@@](CO)(C(=O)N7[C@H]5Nc5ccccc56)N(C)C8=O)c5ccccc5N[C@@H]4N2C(=O)[C@]1(CO)SS3`
Reply: 5.52
